tested on: DLD1; assay: cell viability (CellTiter-Glo) relative to plate median (fraction of plate median); higher = more viable cells; details: 5 µM; treatment time 24 h; reporter: 7TFP
Observed Property: cell viability
Enter a number only.

The cases that follow already have their cell viability on record.
Compound	System	Observed Value
CC1(C)C(=O)[C@H]2C[C@]3(O)C4=CC(=O)O[C@@H](c5ccoc5)[C@@]4(C)CCC3[C@](C)(C2=O)[C@H]1CC(=O)O (some centres undefined)	DLD1	1.08
CS(=O)(=O)CCCCN=C=S	DLD1	0.722
NC[C@@H]1O[C@H](O[C@H]2[C@@H](O)[C@H](O[C@@H]3[C@@H](O)[C@H](N)C[C@H](N)[C@H]3O[C@H]3O[C@H](CO)[C@@H](O)[C@H](O)[C@H]3N)O[C@@H]2CO)[C@H](N)[C@@H](O)[C@@H]1O	DLD1	1.1

cell viability value, target or system DLD1, for Cc1ccc(C(=O)Nc2ccc(S(=O)(=O)O)c3cc(S(=O)(=O)O)cc(S(=O)(=O)O)c23)cc1NC(=O)c1cccc(NC(=O)Nc2cccc(C(=O)Nc3cc(C(=O)Nc4ccc(S(=O)(=O)O)c5cc(S(=O)(=O)O)cc(S(=O)(=O)O)c45)ccc3C)c2)c1 : 1.02

Record CC(=O)O[C@H]1C[C@@]2(C)[C@H](c3ccoc3)OC(=O)[C@H]3O[C@]32[C@@]2(C)C1[C@]1(C)C(C[C@H]2OC(C)=O)C(C)(C)[C@H](OC(C)=O)C[C@@H]1OC(C)=O (some centres undefined) / DLD1, cell viability recorded as 0.973

Observed cell viability, DLD1, O=C(O)c1cc(O)c2c(c1)[C@H]([C@H]1c3cc(C(=O)O)cc(O)c3C(=O)c3c(O[C@@H]4O[C@H](CO)[C@@H](O)[C@H](O)[C@H]4O)cccc31)c1cccc(O[C@@H]3O[C@H](CO)[C@@H](O)[C@H](O)[C@H]3O)c1C2=O : 0.943

====

system: DLD1; experiment: cell viability (CellTiter-Glo) relative to plate median (fraction of plate median); higher = more viable cells; settings: 5 µM; treatment time 24 h; reporter: 7TFP
API: label(entry) gives yes (1) if the entry's cell viability is strictly smaller than 1; on equality or larger values it gives no (0).

Compound	Group Label
Oc1ccc([C@H]2Oc3cc(O)cc(O)c3C[C@H]2O)cc1	no (0)
NC(N)=O	no (0)
O=C([O-])c1ccccc1O.[Na+]	no (0)

In plain terms, does Clc1ccc2c(c1)C(N1CCNCC1)=Nc1ccccc1O2 come in under 1 for cell viability? no (0)

Determine if CC1=Nc2ccc(Cl)cc2S(=O)(=O)N1 shows cell viability strictly lower than 1. yes (1)

Take the compound COC(=O)C[C@H]1C(C)(C)[C@@H](O)[C@@H]2CC3=C4CC(O)O[C@@H](c5ccoc5)[C@]4(C)CCC3[C@@]1(C)C2=O (stereo partly drawn) [3,16-DIDEOXYMEXICANOLIDE-3beta-DIOL] and say whether its cell viability is less than 1. no (0)

Hello, is cell viability of the following compound strictly smaller than 1? CN1CCC(=C2c3ccccc3CCc3sccc32)CC1 no (0)

Report whether reported cell viability is lower than 1 (strictly) for CCC(CCC(C)C1CCC2C3CCC4CC(O)CCC4(C)C3CCC12C)C(C)C (stereo unspecified) no (0)

Input C[C@@H]1CCCCCCCCC[C@H](OC(=O)CCC(=O)O)C(=O)/C=C/C(=O)O1 ; condition: cell viability strictly below 1. Does it hold? no (0)

Report whether reported cell viability is lower than 1 (strictly) for O=C(CCCCC(=O)Nc1c(I)cc(I)c(C(=O)O)c1I)Nc1c(I)cc(I)c(C(=O)O)c1I no (0)

Confirm or reject: cell viability of COc1cc(OC)c2c(=O)c(-c3ccc4c(c3)OCO4)coc2c1 lies strictly below 1 yes (1)

hey, is cell viability for O=c1cc(-c2ccc(O)cc2)oc2cc(O)ccc12 lower than 1 or not? no (0)

Please indicate whether the reported cell viability of Nc1cc(-c2ccncc2)c[nH]c1=O is strictly below 1. no (0)

Decide: cell viability of CCCCOc1ccc(C(=O)CCN2CCCCC2)cc1 strictly below 1? yes (1)

In the record for CC(C)CC1NC(=O)C(NC(=O)c2ncccc2O)C(C)OC(=O)C(c2ccccc2)N(C)C(=O)C(C)NC(=O)C(C(C)C(C)C)N(C)C(=O)CN(C)C(=O)C2CCCN2C1=O (single isomer, unassigned; isomere) [Neoviridogrisein II (Isomere)] , is cell viability less than 1? yes (1)

I'd appreciate it if you could check whether OCC(S)CS (stereo unspecified) has cell viability smaller than 1. yes (1)

Lab note: cell viability threshold 1. Does this compound come in strictly under it? C=C(C)[C@@H]1CC=C(CO)CC1 yes (1)

Lab note: confirm whether the reported cell viability for this compound is below 1, equality not counting. compound: CC1(C)C(=O)C=C[C@@]2(C)C1CC(=O)[C@@]1(C)C3=CC(=O)O[C@@H](c4ccoc4)[C@]3(C)CCC12 (stereo partly specified) yes (1)

The reported measurements were obtained from the supplement of paper PMC6522484.
